system: Ileum; assay: Ratio IC50 for papaverine to IC50 for compound for antispasmodic activity in rat ileum; type: functional

{"columns": ["Compound", "Ratio IC50"],
 "data": [
  ["COc1ccc(Cc2nccc3cc(OC)c(OC)cc23)cc1OC", 1],
  ["C=C1CC[C@H]2O[C@]2(C)CC[C@@H]2[C@@H]1CC2(C)C [(-)-CARYOPHYLLENE OXIDE]", 0.071],
  ["CO[C@]1(C)C[C@H](O)[C@@H]2[C@H](OC(=O)[C@H]2C)[C@@H]2[C@H]1C[C@@H](O)[C@@]2(C)O", 0.09],
  ["CO[C@]1(C)C[C@H](O)[C@@H]2[C@H](OC(=O)[C@H]2C)[C@@H]2[C@H]1CC[C@@]2(C)O", 0.083]
]}

Origin of values: ChEMBL document CHEMBL3046256
